# assaySummary: Phase 1 study LXBB, single-dose pharmacokinetics in healthy subjects
# Type: in vivo, human
# assayContext: human, in vivo; single dose, 20 to 400 mg; read-out: Renal clearance (converted)
assayReadout: CL renal

CL renal lookup needed for Cc1cccnc1OCC(C)(C)NC(=O)[C@H]1[C@@H]2CNC[C@@H]21.O=C(O)C(O)C(O)C(=O)O [Example 5] , thanks. ~167 mL/min

====

# assaySummary: Phase 1 study LXBB, single-dose pharmacokinetics in healthy subjects
# Type: in vivo, human
# assayContext: human, in vivo; single dose, 20 to 400 mg; read-out: mean terminal half-life (t1/2)
assayReadout: half-life

Please give the measured half-life for this compound: Cc1cccnc1OCC(C)(C)NC(=O)[C@H]1[C@@H]2CNC[C@@H]21.O=C(O)C(O)C(O)C(=O)O 11 to 13 h
